Protocol Details: Cytotoxicity against human 184B5 cells after 48 hrs by SRB assay
Type: cell-based
Simple rule here: GI50 at 48 h less than 50 µM is fulfilled, otherwise not fulfilled.

- Smiles Notation: "NC(=S)N/N=C1/C(=O)N(CN2CCN(c3ccnc4cc(Cl)ccc34)CC2)c2ccccc21"
  Qualitative Label: "fulfilled"
- Smiles Notation: "NC(=S)N/N=C1/C(=O)N(CN2CCN(c3ccnc4cc(C(F)(F)F)ccc34)CC2)c2cccc(Cl)c21"
  Qualitative Label: "not fulfilled"
- Smiles Notation: "O=C1C(=O)N(CN2CCN(c3ccnc4cc(Cl)ccc34)CC2)c2ccccc21"
  Qualitative Label: "not fulfilled"
- Smiles Notation: "O=C1C(=O)N(CN2CCN(c3ccnc4cc(Cl)ccc34)CC2)c2cc(Cl)ccc21"
  Qualitative Label: "fulfilled"

---

Protocol Details: Cytotoxicity against human MCF10A cells after 48 hrs by SRB assay
Assay type: cell-based, MCF-10A

- Compound: "O=C1C(=O)N(CN2CCN(c3ccnc4cc(Cl)ccc34)CC2)c2cc(Br)ccc21"
  GI50 at 48 h, µM: 17.9
- Compound: "NC(=S)N/N=C1/C(=O)N(CN2CCN(c3ccnc4cc(Cl)ccc34)CC2)c2cc(Cl)ccc21"
  GI50 at 48 h, µM: 64.6
- Compound: "O=C1C(=O)N(CN2CCN(c3ccnc4cc(C(F)(F)F)ccc34)CC2)c2cc(Br)ccc21"
  GI50 at 48 h, µM: 24.4
- Compound: "O=C1C(=O)N(CN2CCN(c3ccnc4cc(Cl)ccc34)CC2)c2cccc(Cl)c21"
  GI50 at 48 h, µM: 25.6
- Compound: "NC(=S)N/N=C1\\C(=O)Nc2cc(Cl)ccc21"
  GI50 at 48 h, µM: 48.5
- Compound: "CCN(CC)CCCC(C)Nc1ccnc2cc(Cl)ccc12 (configuration not stated)"
  GI50 at 48 h, µM: 81.3
- Compound: "O=C1C(=O)N(CN2CCN(c3ccnc4cc(C(F)(F)F)ccc34)CC2)c2cccc(Br)c21"
  GI50 at 48 h, µM: 37.9

---

Protocol Details: Cytotoxicity against human 184B5 cells after 48 hrs by SRB assay
Type: cell-based
# GI50 at 48 h per record follows

- Compound: "NC(=S)N/N=C1\\C(=O)Nc2cc(Br)ccc21"
  GI50 at 48 h [µM]: 34.9
- Compound: "O=C1C(=O)N(CN2CCN(c3ccnc4cc(Cl)ccc34)CC2)c2cccc(Cl)c21"
  GI50 at 48 h [µM]: 77.7
- Compound: "O=C1C(=O)N(CN2CCN(c3ccnc4cc(Cl)ccc34)CC2)c2cc(Br)ccc21"
  GI50 at 48 h [µM]: 33.2
- Compound: "NC(=S)N/N=C1/C(=O)N(CN2CCN(c3ccnc4cc(C(F)(F)F)ccc34)CC2)c2cccc(Br)c21"
  GI50 at 48 h [µM]: 26.4
- Compound: "O=C1C(=O)N(CN2CCN(c3ccnc4cc(C(F)(F)F)ccc34)CC2)c2cccc(Br)c21"
  GI50 at 48 h [µM]: 49.7
- Compound: "NC(=S)N/N=C1\\C(=O)Nc2cc(Cl)ccc21"
  GI50 at 48 h [µM]: 40.8
- Compound: "NC(=S)/N=N/c1c(O)[nH]c2ccccc12"
  GI50 at 48 h [µM]: 60.4
- Compound: "NC(=S)N/N=C1/C(=O)N(CN2CCN(c3ccnc4cc(Cl)ccc34)CC2)c2cc(Cl)ccc21"
  GI50 at 48 h [µM]: 41.3
- Compound: "O=C1C(=O)N(CN2CCN(c3ccnc4cc(C(F)(F)F)ccc34)CC2)c2cc(Br)ccc21"
  GI50 at 48 h [µM]: 21.8
- Compound: "O=C1C(=O)N(CN2CCN(c3ccnc4cc(C(F)(F)F)ccc34)CC2)c2cc(Cl)ccc21"
  GI50 at 48 h [µM]: 25.2
- Compound: "NC(=S)N/N=C1/C(=O)N(CN2CCN(c3ccnc4cc(C(F)(F)F)ccc34)CC2)c2cc(Cl)ccc21"
  GI50 at 48 h [µM]: 20.1
- Compound: "O=C1C(=O)N(CN2CCN(c3ccnc4cc(C(F)(F)F)ccc34)CC2)c2ccccc21"
  GI50 at 48 h [µM]: 43.9
- Compound: "CCN(CC)CCCC(C)Nc1ccnc2cc(Cl)ccc12 (stereo unspecified) [CHLOROQUINE]"
  GI50 at 48 h [µM]: 76.1
- Compound: "NC(=S)N/N=C1\\C(=O)Nc2cccc(Cl)c21"
  GI50 at 48 h [µM]: 25.9
- Compound: "NC(=S)N/N=C1/C(=O)N(CN2CCN(c3ccnc4cc(C(F)(F)F)ccc34)CC2)c2ccccc21"
  GI50 at 48 h [µM]: 20.2
- Compound: "NC(=S)N/N=C1/C(=O)N(CN2CCN(c3ccnc4cc(C(F)(F)F)ccc34)CC2)c2cc(Br)ccc21"
  GI50 at 48 h [µM]: 21.4
- Compound: "NC(=S)N/N=C1/C(=O)N(CN2CCN(c3ccnc4cc(Cl)ccc34)CC2)c2cccc(Br)c21"
  GI50 at 48 h [µM]: 46.4
- Compound: "NC(=S)N/N=C1/C(=O)N(CN2CCN(c3ccnc4cc(Cl)ccc34)CC2)c2cccc(Cl)c21"
  GI50 at 48 h [µM]: 20.7
- Compound: "NC(=S)N/N=C1/C(=O)N(CN2CCN(c3ccnc4cc(Cl)ccc34)CC2)c2cc(Br)ccc21"
  GI50 at 48 h [µM]: 13.1
- Compound: "NC(=S)N/N=C1\\C(=O)Nc2cccc(Br)c21"
  GI50 at 48 h [µM]: 22.6
- Compound: "O=C1C(=O)N(CN2CCN(c3ccnc4cc(C(F)(F)F)ccc34)CC2)c2cccc(Cl)c21"
  GI50 at 48 h [µM]: 47.4

---

Protocol Details: Cytotoxicity against human MCF10A cells after 48 hrs by SRB assay
Assay type: cell-based, MCF-10A
# GI50 at 48 h per record follows

- Smiles Notation: "NC(=S)N/N=C1/C(=O)N(CN2CCN(c3ccnc4cc(C(F)(F)F)ccc34)CC2)c2ccccc21"
  GI50 at 48 h [µM]: 22.6
- Smiles Notation: "NC(=S)N/N=C1/C(=O)N(CN2CCN(c3ccnc4cc(C(F)(F)F)ccc34)CC2)c2cccc(Cl)c21"
  GI50 at 48 h [µM]: 51.7
- Smiles Notation: "NC(=S)N/N=C1/C(=O)N(CN2CCN(c3ccnc4cc(Cl)ccc34)CC2)c2ccccc21"
  GI50 at 48 h [µM]: 27.7
- Smiles Notation: "NC(=S)N/N=C1\\C(=O)Nc2cccc(Br)c21"
  GI50 at 48 h [µM]: 21.4
- Smiles Notation: "O=C1C(=O)N(CN2CCN(c3ccnc4cc(Cl)ccc34)CC2)c2cccc(Br)c21"
  GI50 at 48 h [µM]: 65.6
- Smiles Notation: "NC(=S)N/N=C1/C(=O)N(CN2CCN(c3ccnc4cc(Cl)ccc34)CC2)c2cccc(Cl)c21"
  GI50 at 48 h [µM]: 19.8
- Smiles Notation: "NC(=S)N/N=C1/C(=O)N(CN2CCN(c3ccnc4cc(Cl)ccc34)CC2)c2cc(Br)ccc21"
  GI50 at 48 h [µM]: 22.1
- Smiles Notation: "NC(=S)N/N=C1/C(=O)N(CN2CCN(c3ccnc4cc(Cl)ccc34)CC2)c2cccc(Br)c21"
  GI50 at 48 h [µM]: 29.4
- Smiles Notation: "NC(=S)N/N=C1/C(=O)N(CN2CCN(c3ccnc4cc(C(F)(F)F)ccc34)CC2)c2cc(Cl)ccc21"
  GI50 at 48 h [µM]: 38.8
- Smiles Notation: "O=C1C(=O)N(CN2CCN(c3ccnc4cc(C(F)(F)F)ccc34)CC2)c2ccccc21"
  GI50 at 48 h [µM]: 70
- Smiles Notation: "NC(=S)/N=N/c1c(O)[nH]c2ccccc12"
  GI50 at 48 h [µM]: 88.8
- Smiles Notation: "NC(=S)N/N=C1/C(=O)N(CN2CCN(c3ccnc4cc(C(F)(F)F)ccc34)CC2)c2cc(Br)ccc21"
  GI50 at 48 h [µM]: 26.9
- Smiles Notation: "O=C1C(=O)N(CN2CCN(c3ccnc4cc(C(F)(F)F)ccc34)CC2)c2cccc(Cl)c21"
  GI50 at 48 h [µM]: 24
- Smiles Notation: "NC(=S)N/N=C1\\C(=O)Nc2cc(Br)ccc21"
  GI50 at 48 h [µM]: 32
- Smiles Notation: "O=C1C(=O)N(CN2CCN(c3ccnc4cc(Cl)ccc34)CC2)c2cc(Cl)ccc21"
  GI50 at 48 h [µM]: 67.8
- Smiles Notation: "NC(=S)N/N=C1/C(=O)N(CN2CCN(c3ccnc4cc(C(F)(F)F)ccc34)CC2)c2cccc(Br)c21"
  GI50 at 48 h [µM]: 30.6
- Smiles Notation: "O=C1C(=O)N(CN2CCN(c3ccnc4cc(Cl)ccc34)CC2)c2ccccc21"
  GI50 at 48 h [µM]: 45.9
- Smiles Notation: "O=C1C(=O)N(CN2CCN(c3ccnc4cc(C(F)(F)F)ccc34)CC2)c2cc(Cl)ccc21"
  GI50 at 48 h [µM]: 32.8
- Smiles Notation: "NC(=S)N/N=C1\\C(=O)Nc2cccc(Cl)c21"
  GI50 at 48 h [µM]: 28.7
